# Test system: Staphylococcus aureus
# measurement-description: Antimicrobial activity against methicillin-resistant Staphylococcus aureus isolate NTUH4722 after 18 to 24 hrs by alamar blue assay
# Format: functional
Reported MIC by item:

- molecule: "Cc1ccc(N2C(=O)c3ccc([N+](=O)[O-])c4c([N+](=O)[O-])ccc(c34)C2=O)cc1"
  bound-operator: "="
  MIC, µg/mL: 2.5
- molecule: "CCCc1cc(O)nc(N2NC(C)=CC2NC(=O)c2ccccc2)n1 (stereo unspecified)"
  bound-operator: "="
  MIC, µg/mL: 8
- molecule: "CCOc1ccc2nc(NC(=O)c3ccc([N+](=O)[O-])o3)sc2c1"
  bound-operator: "="
  MIC, µg/mL: 16
- molecule: "O=C1c2cc([N+](=O)[O-])cc3cc([N+](=O)[O-])cc(c23)C(=O)N1c1cccc2ccccc12"
  bound-operator: "="
  MIC, µg/mL: 0.125
- molecule: "O=C(Nc1cc(Cl)ccc1Cl)c1cc(Cl)cc(Cl)c1O"
  bound-operator: "="
  MIC, µg/mL: 0.5
- molecule: "COc1ccccc1N1C(=O)c2cc([N+](=O)[O-])cc3cc([N+](=O)[O-])cc(c23)C1=O"
  bound-operator: "="
  MIC, µg/mL: 2.5
- molecule: "Cc1ccc(C(=O)c2cc(NC(=O)c3cc(I)cc(I)c3O)ccc2Cl)cc1"
  bound-operator: "≤"
  MIC, µg/mL: 0.03
- molecule: "O=C(Nc1cc(Cl)ccc1Oc1ccc(Cl)c2ccccc12)c1cc(Cl)cc(Br)c1O"
  bound-operator: "≤"
  MIC, µg/mL: 0.03
- molecule: "O=C(c1ccc(Cl)cc1)c1cc(NC(=O)c2cc(Br)cc(Br)c2O)ccc1Br"
  bound-operator: "≤"
  MIC, µg/mL: 0.03
- molecule: "Cc1c(CC(=O)N2CCC(C(=O)O)CC2)c(=O)oc2c(C)c3occ(-c4ccc(F)cc4)c3cc12"
  bound-operator: "="
  MIC, µg/mL: 2.5
- molecule: "Cc1c(CC(=O)N[C@@H](C)C(=O)O)c(=O)oc2c(C)c3occ(-c4ccc(Cl)cc4)c3cc12"
  bound-operator: "="
  MIC, µg/mL: 0.3
- molecule: "NC(=O)c1ccsc1NC(=O)c1ccc([N+](=O)[O-])o1"
  bound-operator: "="
  MIC, µg/mL: 0.25
- molecule: "Cc1c(CC(=O)N2CCC(C(=O)O)(c3ccccc3)CC2)c(=O)oc2c(C)c3occ(-c4ccc(Cl)cc4)c3cc12"
  bound-operator: "="
  MIC, µg/mL: 2.5
- molecule: "Cn1c(/C=C/c2ccc([N+](=O)[O-])o2)nc2ccccc2c1=O"
  bound-operator: "="
  MIC, µg/mL: 1
- molecule: "O=C(Nc1ccc(Cl)c(S(=O)(=O)Nc2cccc(Cl)c2)c1)c1ccc([N+](=O)[O-])o1"
  bound-operator: "="
  MIC, µg/mL: 1.5
- molecule: "O=c1c2ccccc2nc(/C=C/c2ccc([N+](=O)[O-])o2)n1CCCO"
  bound-operator: "="
  MIC, µg/mL: 2
- molecule: "Cc1c(CCC(=O)O)c(=O)oc2c(C)c3occ(-c4ccc(Cl)cc4)c3cc12"
  bound-operator: "="
  MIC, µg/mL: 2.5
- molecule: "O=C(Nc1ccc(Cl)c(Cl)c1)c1cc(Cl)ccc1NS(=O)(=O)c1ccc(Cl)cc1"
  bound-operator: "="
  MIC, µg/mL: 0.25
- molecule: "CCCC(NC(=O)Cc1c(C)c2cc3c(-c4ccc(Cl)cc4)coc3c(C)c2oc1=O)C(=O)O (stereo unspecified)"
  bound-operator: "="
  MIC, µg/mL: 2.5
- molecule: "CCc1c(C)nc(N2NC(C)=CC2NC(=O)c2ccccc2I)nc1O (stereo unspecified)"
  bound-operator: "="
  MIC, µg/mL: 0.5
- molecule: "Cc1c(CCC(=O)O)c(=O)oc2c(C)c3occ(-c4ccc(Br)cc4)c3cc12"
  bound-operator: "="
  MIC, µg/mL: 0.5
